test system: MEK5; construct: gene MAP2K5; conditions: concentration: 1 μM, replicates: in singlicate; n = 1;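 note: KINOMEscan kinase panel screen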
READOUT: %Inh (%)

Cn1ccc2ncnc(Oc3ccc(NC(=O)Nc4ccccc4)cc3)c21 = 39
Cc1cccc(-c2nc(Nc3ccc4[nH]ncc4c3)c3ccccc3n2)n1 [GW857175] = 40
O=C(Nc1n[nH]c2nc(-c3nccs3)c(Br)cc12)C1CCCC1 [SB-742609] = 39
Cc1cc(N2Cc3ccccc3C2)nc(Nc2ccc(S(=O)(=O)N3CCOCC3)cc2)n1.Cl [GSK1669917] = 9

---

tested on: AURKA; conditions: concentration: 1 μM, replicates: in singlicate; n = 1
Attribute: %Inh
READOUT: %Inh (%)

COc1ccc(C2=C(Nc3cccc(C(=O)O)c3)C(=O)NC2=O)cc1 = 18
Clc1cc(Cl)cc(Nc2ccnc(Nc3cc(Cl)cc(Cl)c3)n2)c1 = 90
CC(C)(C)c1ccc(C(=O)Nc2cn3cc(Cl)ccc3n2)cc1 = 0
CCn1c(-c2ccccn2)nc2cnccc21 = 0
Cn1ccc2ncnc(Oc3ccc(NC(=O)Nc4ccccc4)cc3)c21 = 15
Nc1nc(-c2nccs2)c(-c2ccnc3ccccc23)s1 = 0
COC(=O)c1c(-c2ccccc2)c2cc(OC)ccc2c(=O)n1Cc1ccccc1 = 25
COc1cc2ncnc(Nc3ccc4nc(-c5ccccc5)[nH]c4c3)c2cc1OC.Cl = 99.1
Cc1cc(N2Cc3ccccc3C2)nc(Nc2ccc(S(=O)(=O)N3CCOCC3)cc2)n1.Cl = 0
Cc1c(O)cccc1Nc1ccnc2ccc(C(F)(F)F)cc12.Cl = 0
COc1cc(Nc2nccc(N3CCC(NC(=O)Nc4cc(C)ccc4C)C3)n2)cc(OC)c1OC (stereo not shown) = 92.7
Cn1ccc2ncnc(Oc3cccc(C(=O)Nc4ccccc4)c3)c21 = 21
Cc1ccc(NC(=O)Nc2cccc(Cl)c2)cc1-c1ccc(C(=O)Nc2ccncc2)cc1 = 15
COc1cc2ncn(-c3cc(OCC4CCCO4)c(C(N)=O)s3)c2cc1OC (stereo not shown) = 0
Cc1cccc(-c2cc(Nc3ccncc3)c3ccccc3n2)n1 = 9
COc1ccccc1CNC(=O)c1cc(C(=O)c2ccccc2C)c[nH]1 = 100
COC(=O)c1c(-c2ccccc2)c2cc(C(=O)O)ccc2c(=O)n1Cc1ccccc1 = 0
Cn1ccc2ncnc(Oc3ccc(Nc4nc5ccccc5[nH]4)cc3)c21 = 0
Nc1ncnc2[nH]c(-c3ccccc3)nc12 = 100
O=S(=O)(c1ccc(-c2ccnc3[nH]ccc23)cc1)N1CCCC1 = 13
O=C(O)COc1ncnc2cc(-c3ccc4[nH]ncc4c3)sc12 = 45
O=C1NC(=O)C(N2CCc3ccccc32)=C1c1ccccc1Cl = 0
Fc1cc(Cl)ccc1Nc1ccnc2cc(-c3ccc(CN4CCCCC4)o3)ccc12 = 95.7
Cc1csc(-c2nc(Nc3ccncc3)c3ccccc3n2)n1 = 41
CCn1c(-c2cccnc2O)nc2cnccc21 = 8
COc1ccc(CNC(=O)NC2CCN(c3ccnc(Nc4cc(OC)c(OC)c(OC)c4)n3)C2)cc1 (stereo not shown) = 79
COc1cccc(-c2cc(-c3c[nH]nc3-c3ccccn3)ccn2)c1 = 0
Fc1cccc(COc2nnc(-c3ccc4c(c3)CCO4)o2)c1 = 15
